- assayProtocol: color of dye in toluene
- Format: physicochemical
reportedEndpoint: Color in toluene

CCCCOC(=O)C1CCC(c2nc3c(N)c4c(c(O)c3o2)C(=O)c2c(O)cccc2C4=O)CC1 (centres unmarked) | Reddish violet
CCCCC1CCC(c2nc3c(N)c4c(c(O)c3o2)C(=O)c2ccccc2C4=O)CC1 (centres unmarked) | Red
CCCCCCCC1CCC(c2nc3cc4c(c(O)c3o2)C(=O)c2c(NC)ccc(NC)c2C4=O)CC1 (centres unmarked) | Blue
CC(CC[C@H]1CC[C@H](c2nc3c(N)c4c(c(O)c3o2)C(=O)c2c(N)ccc(O)c2C4=O)CC1)CC(C)(C)C (some centres unmarked) | Blue
CCCCCC1CCC(c2nc3c(N)c4c(c(N)c3o2)C(=O)c2ccccc2C4=O)CC1 (centres unmarked) | Reddish violet

Switching to the query record.
Consider CCCCCCCCC1CCC(c2nc3c(N)c4c(c(O)c3o2)C(=O)c2c(N)ccc(O)c2C4=O)CC1 (centres unmarked) . Its measured Color in toluene is Blue
